biological target: Focal Adhesion Kinase (FAK) (Homo sapiens); test: FAK assay system (Focal Adhesion Kinase inhibition); type: biochemical; conditions: read-out: FAK IC50
Sequence (Q05397 384-706): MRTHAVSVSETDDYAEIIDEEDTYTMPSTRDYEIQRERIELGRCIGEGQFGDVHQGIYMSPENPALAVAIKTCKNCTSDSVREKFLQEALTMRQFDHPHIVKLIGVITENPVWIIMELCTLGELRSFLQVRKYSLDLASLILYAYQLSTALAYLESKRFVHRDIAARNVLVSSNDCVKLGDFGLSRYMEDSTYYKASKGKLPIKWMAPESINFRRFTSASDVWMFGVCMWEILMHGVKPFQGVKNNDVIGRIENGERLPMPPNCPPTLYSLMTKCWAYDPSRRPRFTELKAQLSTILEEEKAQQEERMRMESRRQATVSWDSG
measurement name: IC50
Put down the number, then write its unit next to it.

Lookup result for CNC(=O)c1cc(OC)ccc1Nc1nc(Nc2ccc(F)cc2OC)ncc1Cl [Example 16-3] ; measured IC50: 21 nM

IC50 measured on CNC(=O)c1ccccc1Nc1nc(Nc2ccc(N3CCC(N(C)C)C3)cc2OC)ncc1Cl (stereo not drawn) [Example 7-11] = 2.5 nM

Looking up CCC(C)NS(=O)(=O)c1ccccc1Nc1nc(Nc2ccc(F)cc2OC)ncc1Cl (stereo not drawn) [Example 21-2] , I see its IC50 listed as 8.5 nM

Value of IC50 reported for the molecule CNS(=O)(=O)c1ccccc1Nc1nc(Nc2ccc(OC3CCN(C(C)=O)CC3)cc2OC)ncc1Br [Example 3-74] is 15 nM

// field: IC50; key: CCC(CC)S(=O)(=O)c1ccccc1Nc1nc(Nc2ccc(N3CCC(N4CCCCC4)CC3)cc2OC)ncc1Cl [Example 29-2] ; value = 3.3 nM

IC50 for CNS(=O)(=O)c1ccccc1Nc1nc(Nc2ccc(N3CCC(C#N)CC3)cc2OC)ncc1Br [Example 3-40] is 9 nM

====

Please go through the items and note down their pIC50.
molecular target: UniProt:P34152; assay: Phos IC50 (phosphorylation)
Sequence (P34152 2-1052): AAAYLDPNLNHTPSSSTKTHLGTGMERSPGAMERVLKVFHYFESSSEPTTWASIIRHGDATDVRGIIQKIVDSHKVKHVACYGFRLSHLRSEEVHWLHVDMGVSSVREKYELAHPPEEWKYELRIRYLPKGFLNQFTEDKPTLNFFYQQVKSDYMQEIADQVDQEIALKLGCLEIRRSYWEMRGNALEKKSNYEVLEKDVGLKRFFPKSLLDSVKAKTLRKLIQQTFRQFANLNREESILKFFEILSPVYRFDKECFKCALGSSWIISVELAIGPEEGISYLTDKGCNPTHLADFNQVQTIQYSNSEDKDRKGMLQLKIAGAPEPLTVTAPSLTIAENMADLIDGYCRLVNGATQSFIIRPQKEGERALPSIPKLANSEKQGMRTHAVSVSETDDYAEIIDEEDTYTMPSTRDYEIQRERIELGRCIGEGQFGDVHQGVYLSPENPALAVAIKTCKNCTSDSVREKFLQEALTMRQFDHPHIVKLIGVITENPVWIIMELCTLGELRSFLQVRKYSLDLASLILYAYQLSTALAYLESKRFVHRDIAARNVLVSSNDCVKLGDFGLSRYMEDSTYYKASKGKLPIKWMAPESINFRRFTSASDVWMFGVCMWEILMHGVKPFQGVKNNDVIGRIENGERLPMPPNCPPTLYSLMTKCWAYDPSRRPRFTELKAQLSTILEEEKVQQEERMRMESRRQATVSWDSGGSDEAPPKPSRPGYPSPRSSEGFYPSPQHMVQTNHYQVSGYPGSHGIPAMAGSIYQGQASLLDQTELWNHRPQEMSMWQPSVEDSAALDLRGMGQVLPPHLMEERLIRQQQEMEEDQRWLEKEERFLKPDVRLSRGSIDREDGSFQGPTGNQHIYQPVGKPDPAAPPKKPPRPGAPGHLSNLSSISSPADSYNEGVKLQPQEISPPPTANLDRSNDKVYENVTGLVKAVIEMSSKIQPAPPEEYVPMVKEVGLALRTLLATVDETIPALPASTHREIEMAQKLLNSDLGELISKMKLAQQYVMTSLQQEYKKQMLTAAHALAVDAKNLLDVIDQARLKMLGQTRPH
Remember, pIC50 is on a log scale: it is -log10 of the molar concentration.

// field: pIC50; key: CNS(=O)(=O)c1ccccc1Nc1nc(Nc2cc(OCC3CCN(C)CC3)ccc2OC)ncc1Cl ; value = 6.12

Given item CNC(=O)c1c(C)cccc1Nc1nc(Nc2ccc(N3CCOCC3)cc2OC)ncc1Cl , the value recorded as its pIC50 is 6.05

Lab note: CCN1CCC(Oc2ccc(Nc3ncc(Cl)c(Nc4ccccc4S(=O)(=O)NC)n3)c(OC)c2)C1 (centres unmarked) gave pIC50 of 6.52

Reported pIC50 ( CNC(=O)c1ccccc1Nc1nc(Nc2ccc(N3CCC(C(N)=O)CC3)cc2OC)ncc1Cl ) = 6.10

For CNS(=O)(=O)c1ccccc1Nc1nc(Nc2ccc(N3CCCC(C(N)=O)C3)cc2OC)ncc1Cl (centres unmarked) the molecule record lists pIC50 as 6.40

Record CCCS(=O)(=O)c1ccccc1Nc1nc(Nc2ccc(N3CCC(O)CC3)cc2OC)ncc1Cl , field pIC50: 7.30

Quick note, pIC50 for CNS(=O)(=O)c1ccccc1Nc1nc(Nc2ccccc2OC(F)F)ncc1Cl landed at 6.24

For this molecule ( COc1cc(N2CCC(NC(C)=O)C2)ccc1Nc1ncc(Cl)c(Nc2ccccc2S(=O)(=O)NC2CCC2)n1 (centres unmarked) ), measured pIC50 is 6.52

Query Cc1cc(N2CCOCC2)ccc1Nc1ncc(Cl)c(Nc2ccccc2S(=O)(=O)C(C)C)n1 yields pIC50 of 6.22

Record COc1cc(N2CCC(N3CCN(C)CC3)CC2)ccc1Nc1ncc(Cl)c(Nc2ccccc2S(=O)(=O)NC(C)C)n1 . Reported pIC50: 6.70

So for COc1cc(N2CCC(N3CCCC3)CC2)ccc1Nc1ncc(Cl)c(Nc2ccccc2S(=O)(=O)C(C)C)n1 , the logged pIC50 turned out to be 6.30

For this molecule ( COc1cc(OC2CCN(C)C2)ccc1Nc1ncc(Cl)c(Nc2ccccc2S(=O)(=O)NC(C)C)n1 (centres unmarked) ), measured pIC50 is 7.52
